Consider the following compounds; for each one, report its normalised response.
- Test system: CAL-120
- assayProtocol: normalised response (% of control), CellTox Green; higher = less cell death (100 = DMSO, 0 = benzethonium chloride kill control)
- measurementContext: incubation time: 72 h
One number for each entry, in %.

# count of solved cases: 5
- compound: "Cc1c(C(=O)Nc2ccc(N3C[C@@H](C)O[C@@H](C)C3)nc2)cccc1-c1ccc(OC(F)(F)F)cc1 [Erismodegib] (100 nM)"
  normalised response, %: 94.8
- compound: "CCCc1cc(C)[nH]c(=O)c1CNC(=O)c1cc(-c2ccnc(N3CCN(C)CC3)c2)cc2c1cnn2C(C)C [GSK343] (10000 nM)"
  normalised response, %: 78.5
- compound: "Cc1c(C(=O)Nc2ccc(N3C[C@@H](C)O[C@@H](C)C3)nc2)cccc1-c1ccc(OC(F)(F)F)cc1 [Erismodegib] (10000 nM)"
  normalised response, %: 101
- compound: "CC(C)(C)Cn1c(N)nc2ccc(-c3[nH]c(C(C)(C)C)nc3-c3ccc(F)cc3)nc21 (100 nM)"
  normalised response, %: 103
- compound: "O=C(O)CC[C@H]1CC[C@@](c2cc(F)ccc2F)(S(=O)(=O)c2ccc(Cl)cc2)CC1 [MK-0752] (1000 nM)"
  normalised response, %: 102

# per-item lookup of normalised response; items listed below
1. Cc1cc2c(F)c(Oc3ncnn4cc(OC[C@@H](C)O)c(C)c34)ccc2[nH]1 [Brivanib] (10 nM)
2. CCCCCOC(=O)Nc1nc(=O)n([C@@H]2O[C@H](C)[C@@H](O)[C@H]2O)cc1F [Capecitabine] (10000 nM)
3. O=C(O)CC[C@H]1CC[C@@](c2cc(F)ccc2F)(S(=O)(=O)c2ccc(Cl)cc2)CC1 [MK-0752] (100 nM)
4. CC/C(=C(\c1ccccc1)c1ccc(OCCN(C)C)cc1)c1ccccc1 [Tamoxifen] (1000 nM)
5. Cc1c(N)nc([C@H](CC(N)=O)NC[C@H](N)C(N)=O)nc1C(=O)N[C@H](C(=O)N[C@H](C)[C@@H](O)[C@H](C)C(=O)N[C@H](C(=O)NCCc1nc(-c2nc(C(=O)NCCC[S+](C)C)cs2)cs1)[C@@H](C)O)[C@@H](OC1OC(CO)C(O)C(O)C1OC1OC(CO)C(O)C(OC(N)=O)C1O)c1cnc[nH]1 (stereo partly specified) [Bleomycin] (1000 nM)
6. CC(C)C[C@H](NC(=O)[C@H](CCc1ccccc1)NC(=O)CN1CCOCC1)C(=O)N[C@@H](Cc1ccccc1)C(=O)N[C@@H](CC(C)C)C(=O)[C@@]1(C)CO1 [Carfilzomib] (1000 nM)
7. NC1(c2ccc(-c3nc4ccn5c(=O)[nH]nc5c4cc3-c3ccccc3)cc2)CCC1 [MK-2206] (100 nM)
8. C[C@@H](C(=O)O)c1ccc(-c2ccccc2)c(F)c1 [Tarenflurbil] (1000 nM)

98
90.2
101
102
92.9
-0.18
101
100

# per-item lookup of normalised response; items listed below
1. O=C(c1cc(Cc2n[nH]c(=O)c3ccccc23)ccc1F)N1CCN(C(=O)C2CC2)CC1 [Olaparib] (100 nM)
2. CC[C@H](CC#N)OC(=O)N[C@@H](C)c1cccc(NC(=O)Nc2ccc(-c3cnco3)c(OC)c2)c1 [AVN944] (1000 nM)
3. CC[C@H](CC#N)OC(=O)N[C@@H](C)c1cccc(NC(=O)Nc2ccc(-c3cnco3)c(OC)c2)c1 [AVN944] (100 nM)
4. CC(C)C(=O)Nc1ccc([N+](=O)[O-])c(C(F)(F)F)c1 [Flutamide] (10000 nM)
5. COc1cc2c(Oc3ccc(NC(=O)C4(C(=O)Nc5ccc(F)cc5)CC4)cc3F)ccnc2cc1OCCCN1CCOCC1 [Foretinib] (1000 nM)
6. CCc1c(C(=O)C(N)=O)c2c(OCC(=O)O)cccc2n1Cc1ccccc1 [Varespladib] (1000 nM)
7. COc1cc2c(Oc3ccc(NC(=O)C4(C(=O)Nc5ccc(F)cc5)CC4)cc3F)ccnc2cc1OCCCN1CCOCC1 [Foretinib] (10 nM)
8. Cc1c(N)nc([C@H](CC(N)=O)NC[C@H](N)C(N)=O)nc1C(=O)N[C@H](C(=O)N[C@H](C)[C@@H](O)[C@H](C)C(=O)N[C@H](C(=O)NCCc1nc(-c2nc(C(=O)NCCC[S+](C)C)cs2)cs1)[C@@H](C)O)[C@@H](OC1OC(CO)C(O)C(O)C1OC1OC(CO)C(O)C(OC(N)=O)C1O)c1cnc[nH]1 (stereo partly specified) [Bleomycin] (10000 nM)

1: 95; 2: 99.9; 3: 97.7; 4: 98.1; 5: 99.9; 6: 106; 7: 91.5; 8: 99.4
